ASSAYED TARGET: human OX2R (Homo sapiens)
Construct: expressed in transfected cells; host or cells: CHO (Chinese hamster ovary) cells, line CHOOX2R, co-expressing NFAT-luciferase
Sequence (O43614 1-444): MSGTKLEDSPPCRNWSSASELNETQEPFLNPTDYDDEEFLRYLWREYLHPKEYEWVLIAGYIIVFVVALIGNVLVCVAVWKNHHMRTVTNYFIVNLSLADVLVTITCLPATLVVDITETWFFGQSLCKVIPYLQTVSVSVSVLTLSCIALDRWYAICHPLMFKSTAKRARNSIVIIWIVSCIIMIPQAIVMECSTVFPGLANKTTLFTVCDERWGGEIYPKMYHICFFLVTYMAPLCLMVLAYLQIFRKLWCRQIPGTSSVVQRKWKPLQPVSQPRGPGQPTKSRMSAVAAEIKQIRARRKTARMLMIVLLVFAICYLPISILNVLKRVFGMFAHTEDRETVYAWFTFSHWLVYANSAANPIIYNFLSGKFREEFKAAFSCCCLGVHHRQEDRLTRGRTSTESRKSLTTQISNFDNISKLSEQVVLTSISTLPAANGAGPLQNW
ASSAY SUMMARY: Agonist activity against OX2R: intracellular calcium (Fura-2AM, FDSS7000) in CHOOX2R cells
Format: cell-based
CONDITION NOTES: 10 μM test compound; relative to orexin-A as full agonist (100%)
PROPERTY MEASURED: Response (%) OX2R

These recorded examples may help you get a feel for the data.
| CHEMICAL STRING | Response (%) OX2R |
| --- | --- |
| COc1ccc(-c2cccc(C(=O)N(C)C)c2)cc1S(=O)(=O)Nc1cccc(NC(=O)Nc2ccccc2C)c1 | 88 |
| COc1ccc(-c2cccc(C(=O)N(C)C)c2)cc1S(=O)(=O)Nc1cccc(NC(=O)Nc2ccccc2N(C)C)c1 | 102 |

a. COc1ccccc1NC(=O)Nc1cccc(NS(=O)(=O)c2cc(-c3cccc(C(=O)N(C)C)c3)ccc2OC)c1
b. COc1ccc(-c2cccc(C(=O)N(C)C)c2)cc1S(=O)(=O)Nc1cccc(NC(=O)c2ccc3c(c2)OCO3)c1
Field: entry with larger Response (%) OX2R (options a / b ). Your choice should be expressed through its label.
a
(a: 78%, b: 19%)
